Study target: T1, recombinant human CTLA4-Fc (Sino Biological, 11159-H03H) (human, UniProt P16410 37-162)
T1 construct: bought; whole entry named; Biotinylated in the yeast display assays; also called human CTLA4 fused with human FC fragment; biotinylated CTLA4-Fc; not shown: human Fc fragment
T1 sequence (looked up): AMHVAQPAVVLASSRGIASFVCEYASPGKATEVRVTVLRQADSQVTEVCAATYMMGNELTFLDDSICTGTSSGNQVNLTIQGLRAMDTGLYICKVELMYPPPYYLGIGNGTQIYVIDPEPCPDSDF
Experiment summary: ELISA, coated human CTLA4-Fc, batch 2
# EC50 values compiled below

Binder	EC50, nM
TY22564 (antibody, IgG1, V domains shown) VH: EVQLVESGGGLVQPGGSLRLSCAASGYSISSGYHWSWIRQAPGKGLEWLARIDWDDDKYYSTSLKSRLTISRDNSKNTLYLQLNSLRAEDTAVYYCARSYVYFDYWGQGTLVTVSS VL: EVGSYYSAYPACDSHYPYCNSAGRSAGGGGSPLGLAGSGGSDIQLTQSPSSLSASVGDRVTITCRASQSVRGRFLAWYQQKPGKAPKLLIYDASNRATGIPSRFSGSGSGTDFTLTISSLQPEDFATYYCQQSSSWPPTFGQGTKVEIKR	39
TY22401 (antibody, V domains shown, peptide fused to the N-terminus of the light chain; also called masking peptide B13189) VH: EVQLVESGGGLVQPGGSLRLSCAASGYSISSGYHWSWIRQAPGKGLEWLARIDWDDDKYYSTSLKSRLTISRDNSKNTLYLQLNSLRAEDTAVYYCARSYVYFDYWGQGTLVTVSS VL: EVGSYNFVADSCPDHPYPCSASGRSAGGGGSPLGLAGSGGSDIQLTQSPSSLSASVGDRVTITCRASQSVRGRFLAWYQQKPGKAPKLLIYDASNRATGIPSRFSGSGSGTDFTLTISSLQPEDFATYYCQQSSSWPPTFGQGTKVEIKR	15.9
TY22563 (antibody, IgG1, V domains shown) VH: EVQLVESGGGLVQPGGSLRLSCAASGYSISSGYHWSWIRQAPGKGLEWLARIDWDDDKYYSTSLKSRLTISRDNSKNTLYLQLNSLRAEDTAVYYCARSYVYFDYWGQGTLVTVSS VL: EVGSYYSAYPACDSHYPYCQSSGRSAGGGGSPLGLAGSGGSDIQLTQSPSSLSASVGDRVTITCRASQSVRGRFLAWYQQKPGKAPKLLIYDASNRATGIPSRFSGSGSGTDFTLTISSLQPEDFATYYCQQSSSWPPTFGQGTKVEIKR	47.7
